Values from patent US20120095052A1

experimental protocol: Clinical study of the effect of food and antacid on pharmacokinetics after a single oral 40 mg tablet in healthy subjects
Type: in vivo, human
experimental conditions: both sexes, human, plasma, po, 40 mg, Fasted without antacid (after 10-hour fast); single 40 mg oral tablet; healthy subjects; mean
measured attribute: Cmax (ng/mL)
Number in ng/mL, nothing else.

Specify Cmax for CCOC(=O)N[C@@H]1CC[C@@H]2[C@@H](C1)C[C@H]1C(=O)O[C@H](C)[C@H]1[C@H]2/C=C/c1ccc(-c2cccc(F)c2)cn1 and stop.
262

----------
experimental protocol: Clinical study of the effect of food and antacid on pharmacokinetics after a single oral 40 mg tablet in healthy subjects
Assay type: in vivo, human
experimental conditions: both sexes, human, plasma, po, 40 mg, Fasted without antacid; single 40 mg oral tablet; healthy subjects; mean; read-out: AUC(tf)
measured attribute: AUC (ng·h/mL)
Number in ng·h/mL, nothing else.

Specify AUC for CCOC(=O)N[C@@H]1CC[C@@H]2[C@@H](C1)C[C@H]1C(=O)O[C@H](C)[C@H]1[C@H]2/C=C/c1ccc(-c2cccc(F)c2)cn1 and stop.
16800
